Would you mind telling me the reported minimal inhibitory concentration (MIC), Resistant of each entry?
# System: Resistant Enterococcus faecium and faecalis
# test.description: MIC, standard broth micro-dilution assay, Resistant
# Assay type: cell-based
# test.parameters: geometric mean of 4-6 isolates

Observe how each entry below is paired with its result.
Q. State its minimal inhibitory concentration (MIC), Resistant on Resistant Enterococcus faecium and faecalis: CC(C)CC(NC(=O)OC(C)(C)C)C(=O)NC1C(=O)NC(CC(N)=O)C(=O)NC2C(=O)NC3C(=O)NC(C(=O)NC(C(=O)O)c4cc(O)cc(O)c4-c4cc3ccc4O)C(OC3CC(C)(N)C(O)C(C)O3)c3ccc(c(Cl)c3)Oc3cc2cc(c3OC2OC(CO)C(O)C(O)C2O)Oc2ccc(cc2Cl)C1O (stereo not drawn)
A. >128

Q. Fill in the recorded minimal inhibitory concentration (MIC), Resistant for this compound, with Resistant Enterococcus faecium and faecalis as test system: CC1OC(OC2C(Oc3c4cc5cc3Oc3ccc(cc3Cl)[C@@H](O)[C@@H](NC(=O)c3ccc(-c6ccccc6)cc3)C(=O)N[C@@H](CC(N)=O)C(=O)N[C@H]5C(=O)N[C@H]3C(=O)NC(C(=O)N[C@H](C(=O)O)c5cc(O)cc(O)c5-c5cc3ccc5O)[C@H](OC3CC(C)(N)C(O)C(C)O3)c3ccc(c(Cl)c3)O4)OC(CO)C(O)C2O)CC(C)(N)C1O (stereo partly drawn) [Example 1, N^1-(p-phenylbenzoyl)desleucylA82846B]
A. >128

# context switch: different compound, same minimal inhibitory concentration (MIC), Resistant
Q. Param readout= minimal inhibitory concentration (MIC), Resistant; system= Resistant Enterococcus faecium and faecalis; entry= CC(C)C[C@@H](N)C(=O)N[C@H]1C(=O)N[C@@H](CC(N)=O)C(=O)N[C@H]2C(=O)N[C@H]3C(=O)NC(C(=O)N[C@H](C(=O)O)c4cc(O)cc(O)c4-c4cc3ccc4O)[C@H](OC3CC(C)(N)C(O)C(C)O3)c3ccc(c(Cl)c3)Oc3cc2cc(c3OC2OC(CO)C(O)C(O)C2OC2CC(C)(N)C(O)C(C)O2)Oc2ccc(cc2Cl)[C@H]1O (stereo partly drawn) ; returns value.
A. >32
